System: MDA-MB-231
Test: NCI tumour cell line growth inhibition, 48 h
The source made the active and inactive calls. Rule as the data show it: active = GI50 up to about 1.1 µM and inactive = higher.
reported.property: GI50

Guide cases for GI50, answers given:
compound: CCOC(=O)c1ccc(/N=C2/C(=S)N(c3ccc(C(=O)OCC)cc3)C(=N)N2/N=C/c2ccccc2)cc1
GI50: 8.05 µM (inactive)
--
compound: BrC1=C(Br)C2(SCCS2)[C@H]2C[C@@H]1c1ccccc12
GI50: 60.8 µM (inactive)
--
compound: C[C@@H](Cl)[C@H]1CCCN(Cc2ccc(Br)cc2)C1
GI50: > 12.5 µM (inactive)

Would you mind giving GI50 for every compound in the list below?
1. CO[P@@]1(=O)O[C@@H](c2ccccc2)[C@H](O)[C@]1(O)c1ccccc1
2. COC(OC)C1OC(CO)C(n2ccc(N)nc2=O)C1O (centres undefined)

> 100 µM (inactive)
> 100 µM (inactive)

* * *

System: UO-31
Assay: NCI tumour cell line growth inhibition, 48 h
The source made the active and inactive calls. No stated cut-off is given here; in the data, active = GI50 up to about 1.1 µM and inactive = higher.
Entry note: the call must match one of t = active, f = inactive

Recorded results for 10 compounds are shown here.
compound: CSC(=N)NNC(=O)CCC(=O)Nc1ccccc1C(F)(F)F
class.label: f
//
compound: CCCCc1c2c(nc3c1CCC/C3=C\c1ccccc1)/C(=C/c1ccccc1)CCC2
class.label: f
//
compound: COc1ccc(-c2onc(-c3c(C)cc(C)cc3C)c2C2=NCCCN2)cc1
class.label: f
//
compound: Cc1cc(C)n(-c2ccnc3cc(Cl)ccc23)n1
class.label: f
//
compound: Cc1cc(-c2nc3ccc(F)cc3s2)ccc1NC(=O)[C@H](C)N
class.label: f
//
compound: C[C@]12C=CC(=O)C=C1CC[C@@H]1[C@@H]2C(=O)C[C@@]2(C)[C@H]1CC[C@]2(O)C(=O)CO
class.label: f
//
compound: COc1ccc(CC(=O)NCCc2ccc(OC)c(OC)c2OC)cc1
class.label: f
//
compound: OCCOCn1nc(-c2ccccc2)nc1-c1cnccn1
class.label: f
//
compound: CCC(C)(O)c1cn(-c2cccc(S(=O)(=O)O)c2)nn1 (centres undefined)
class.label: f
//
compound: O=[As](O)(O)c1cc(/N=N/c2ccc(-c3ccc(/N=N/c4cc([As](=O)(O)O)c(O)cc4O)cc3)cc2)c(O)cc1O
class.label: f

Which result was noted for this compound in the test: COc1ccc(CCNCCCC2c3ccccc3-c3ccccc32)cc1OC
f

I'd appreciate the recorded outcome for Cn1cc(NC(=O)c2cc(NC(=O)c3cc(NC=O)cn3C)cn2C)cc1C(=O)NCCC(=N)N from this test.
f

* * *

Tested on: RPMI-8226
Experiment: NCI tumour cell line growth inhibition, 48 h
Activity calls are given as the source filed them. No stated cut-off is given here; in the data, active = GI50 up to about 1.1 µM and inactive = higher.
Please go through the items and note down their GI50.

compound: C=CCn1c(=O)c(C)cn(/C(=C/C(=O)OCC)C(=O)OCC)c1=O
result: 14.6 µM (inactive)

compound: CC1=CC(c2ccccc2)n2c(nc3cc4ccccc4cc32)N1 (stereo unspecified)
result: > 100 µM (inactive)

compound: COc1cc(/C=N\O[Si](C)(C)C(C)(C)C)ccc1O[Si](C)(C)C(C)(C)C
result: 56.6 µM (inactive)

compound: CCOC(=O)C1=C(Cl)c2cccnc2C1=O
result: 87.3 µM (inactive)

compound: Nc1ncnc2c1ncn2C=C=CCO
result: > 100 µM (inactive)

Let us move to another entry and its GI50.
For record CSc1ncc2c(n1)C(C#N)C1Sc3ccccc3N1C2=O (stereo unspecified) the listed GI50 is > 100 µM (inactive)
